System: aP2
Experiment: aP2 mRNA expression in adipocytes (real-time PCR)
Assay type: cell-based, human
Conditions: differentiating adipocytes transfected with oligomeric compound; Table 75
In the oligonucleotide strings, read from the 5' end, every base follows the letter of its sugar. An asterisk marks phosphorothioate; unmarked linkages are phosphodiester. Other units and linkages are bracketed, terminal groups are in braces. A string of capitals states the bases alone. e = 2'-O-(2-methoxyethyl) (MOE); [5mC] = 5-methylcytosine
endpoint_label: aP2 mRNA

Task: Need aP2 mRNA of 327910 (antisense eT*eG*eA*eT*eA*eG*e[5mC]*e[5mC]*e[5mC]*eT*eG*eT*eA*e[5mC]*eA*eA*eT*eG*e[5mC]*eT*eG*e[5mC]*eT) [compound 327910] , thanks.
Result: 35 percentage of untreated control (UTC)

Task: Quick one: aP2 mRNA of 346907 (AUGUAUGUGGGACGGUAAACCA; all 2'-MOE, all phosphorothioate, methylation of C and T or U not given here) [compound 346907] ?
Result: 50 percentage of untreated control (UTC)

Task: Can you share its aP2 mRNA? I mean this substance: 341803 (antisense CCACACACTTCCTTACATTCCA; all 2'-MOE, all phosphorothioate, methylation of C not given here) [compound 341803]
Result: 85 percentage of untreated control (UTC)

Task: Value lookup for aP2 mRNA; key = 341796 (antisense UCAUACAGCUAGAUAACCAAAGA; all 2'-MOE, all phosphorothioate, methylation of C and T or U not given here) [compound 341796]
Result: 74 percentage of untreated control (UTC)

Task: Please look up its aP2 mRNA: 327921 (antisense e[5mC]*eT*eT*e[5mC]*e[5mC]*eA*eG*eT*e[5mC]*eG*eG*eG*eG*eA*eT*eG*eT*eT*eT*eA*e[5mC]*eA) [compound 327921]
Result: 76 percentage of untreated control (UTC)
